- SYSTEM NAME: Peroxisome proliferator-activated receptor gamma (Homo sapiens, UniProt P37231)
- MEASUREMENT NOTES: Agonist activity for Human PPAR gamma receptor in transcriptional activation assay
- Type: functional
MEASUREMENT TYPE: EC50 (µM)

1) CCOC(=O)C(C)(C)Oc1ccc(Cl)cc1 [CLOFIBRATE]    500

----------
# pEC50 per record follows
- SYSTEM NAME: Peroxisome proliferator-activated receptor gamma (Homo sapiens)
- Sequence (P37231 whole entry): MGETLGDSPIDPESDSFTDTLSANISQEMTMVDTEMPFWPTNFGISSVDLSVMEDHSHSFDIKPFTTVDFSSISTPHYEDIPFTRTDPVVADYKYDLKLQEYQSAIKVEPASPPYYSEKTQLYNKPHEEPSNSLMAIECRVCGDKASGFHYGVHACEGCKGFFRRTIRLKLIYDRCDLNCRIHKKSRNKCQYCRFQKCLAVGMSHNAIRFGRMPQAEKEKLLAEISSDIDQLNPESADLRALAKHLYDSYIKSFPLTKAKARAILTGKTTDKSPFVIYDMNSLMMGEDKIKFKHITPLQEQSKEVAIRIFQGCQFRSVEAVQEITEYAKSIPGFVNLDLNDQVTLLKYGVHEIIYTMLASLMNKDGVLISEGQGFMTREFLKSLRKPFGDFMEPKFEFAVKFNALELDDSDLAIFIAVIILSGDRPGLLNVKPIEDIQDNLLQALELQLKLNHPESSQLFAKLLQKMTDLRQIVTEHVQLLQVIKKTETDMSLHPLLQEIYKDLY
pEC50: −log10 of the molar value.
MEASUREMENT TYPE: pEC50

1. CC(C)(Oc1ccc(CCCN(CCc2c(F)cccc2Cl)C(=O)Nc2cccc(Cl)c2Cl)cc1)C(=O)O    5.60
2. CCCc1c(OCCCOc2ccc(OCC(=O)O)cc2)ccc(C(C)=O)c1O    5.26

These measurements were taken from ChEMBL document CHEMBL1133093.
